Overview of reported pIC50 across a group of compounds:
- target.or.system: human Axl (473-end) (Homo sapiens)
- Sequence (P30530 473-894 limits assumed): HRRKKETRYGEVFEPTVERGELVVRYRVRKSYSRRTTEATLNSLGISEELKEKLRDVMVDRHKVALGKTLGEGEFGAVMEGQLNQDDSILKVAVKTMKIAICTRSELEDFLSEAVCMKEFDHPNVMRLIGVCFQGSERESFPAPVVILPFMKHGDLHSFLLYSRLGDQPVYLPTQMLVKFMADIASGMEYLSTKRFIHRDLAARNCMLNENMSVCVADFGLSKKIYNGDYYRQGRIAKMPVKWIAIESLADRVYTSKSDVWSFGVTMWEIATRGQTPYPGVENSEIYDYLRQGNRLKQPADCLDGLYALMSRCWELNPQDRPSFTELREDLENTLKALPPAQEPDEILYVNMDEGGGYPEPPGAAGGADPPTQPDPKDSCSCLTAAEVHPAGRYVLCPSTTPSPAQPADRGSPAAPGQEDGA
pIC50: −log10 of the molar value.
test.readout: pIC50

# chemical.string, result
rows = [
    ("Nc1ncc(-c2cnn(C3CCNCC3)c2)cc1-c1nnc(-c2c(Cl)ccc(F)c2Cl)o1", "> 6.30"),
    ("Nc1ncc(-c2cnn(C3CCN(C(=O)Cc4ccccc4)CC3)c2)cc1-c1nnc(-c2c(Cl)cccc2Cl)o1", "5.00 to 6.00"),
    ("Nc1ncc(-c2cnn(C3CCOCC3)c2)cc1-c1ccc(-c2ccccc2)o1", "5.00 to 6.00"),
    ("Nc1ncc(-c2cnn(C3CCCCC3)c2)cc1-c1nc(-c2c(Cl)cccc2Cl)no1", "5.00 to 6.00"),
    ("CC(C)(C)OC(=O)N1CCC(n2cc(-c3cnc(N)c(-c4nnc(Cc5ccccc5)o4)c3)cn2)CC1", "> 6.30"),
    ("CC(C)(C)OC(=O)N1CCC(n2cc(-c3cnc(N)c(-c4nnc(-c5nccs5)o4)c3)cn2)CC1", "6.00 to 6.30"),
    ("Nc1ncc(-c2cnn(C3CCNCC3)c2)cc1-c1ncc(-c2cccnc2)o1", "> 6.30"),
    ("Nc1ncc(-c2cnn(C3CCCCC3)c2)cc1-c1ncc(-c2ccc(Cl)cc2)o1", "< 5.00"),
    ("CC(C)(C)OC(=O)N1CCC(n2cc(-c3cnc(N)c(-c4nnc(-c5cnccn5)o4)c3)cn2)CC1", "> 6.30"),
]
